These entries and their values trace back to patent US5100909A.

target: CNS cholinergic receptor; format: binding; conditions: tritiated quinuclidine benzylate; read-out: CNS Cholinergic Receptor Binding Assays Ki (nM) QNB
With a cut-off of 200 nM, any Ki strictly below it is called True; any Ki meeting it or above is called False.

> print(dat)
                                    molecule             tested.target  class.assignment
 1     CC(=O)N(C)CC#CCn1cncc1C [Compound 20]  CNS cholinergic receptor              True
 2  Cc1cn(CC#CCN2CCCC2=O)c(C)n1 [Compound 4]  CNS cholinergic receptor              True
 3     Cc1cn(CC#CCN2CCCC2=O)cn1 [Compound 9]  CNS cholinergic receptor             False
 4  CC(=O)N(C)C(C)C#CCn1ccnc1C (centres unmarked) [Compound 15]  CNS cholinergic receptor              True
 5  CC(=O)N(C)C(C)C#CCn1cc(C)nc1C (centres unmarked) [Compound 17]  CNS cholinergic receptor              True
 6  C(#CCN1CCCC1)CN1CCCC1 [Tremorine, reference compound]  CNS cholinergic receptor             False
 7  CC(=O)N(C)C(C)C#CCn1ccnc1 (centres unmarked) [Compound 14]  CNS cholinergic receptor             False
 8  Cc1cncn1CC#CCN1C(=O)CCC1=O [Compound 11]  CNS cholinergic receptor              True
 9       Cc1nccn1CC#CCN1CCCC1=O [Compound 2]  CNS cholinergic receptor              True
10  CC(=O)N(C)C(C)C#CCn1c(C)cnc1C (centres unmarked) [Compound 18]  CNS cholinergic receptor              True
11  CC1CCC(=O)N1CC#CCn1ccnc1 (centres unmarked) [Compound 5]  CNS cholinergic receptor              True

====

biological target: CNS cholinergic receptor; type: binding; conditions: tritiated quinuclidine benzylate; read-out: CNS Cholinergic Receptor Binding Assays Ki (nM) QNB
OBSERVATION_TYPE: Ki (nM)

> print(dat)
                                   compound  reading.unit  reported.value
1                     O=C1CCCN1CC#CCn1ccnc1            nM             600
2                 O=C1CCC(=O)N1CC#CCn1ccnc1            nM             634
3  O=C1CCCN1CC#CCN1CCCC1 [Oxotremorine, reference compound]            nM             220

====

system: oxotremorine-induced body tremor in mice; assay: Oxotremorine antagonist assay (body tremor) in mice; type: in vivo; conditions: Mus musculus, ip, i.p. test compound, 20 min before oxotremorine 0.5 mg/kg s.c.; mice; read-out: Oxot. Antagonist Tremor (ED50)
OBSERVATION_TYPE: log10(ED50) (log10 of the value in mg/kg)

> print(dat)
                                    molecule  reported.value
 1  Cc1cncn1CC#CCN1C(=O)CCC1C (stereo not drawn)            1.15
 2                   CCc1nccn1CC#CCN1CCCC1=O            0.99
 3  CC(C#CCn1ccnc1)N1CCCC1=O (stereo not drawn)            1.65
 4  CC(=O)N(C)C(C)C#CCN1CCCC1 (stereo not drawn) [BM-5, reference compound]            0.57
 5  CC(=O)N(C)C(C)C#CCn1cncc1C (stereo not drawn)            1.90
 6  CC(=O)N(C)C(C)C#CCn1cnc(C)c1C (stereo not drawn)            1.40
 7  CC(=O)N(C)C(C)C#CCn1cc(C)nc1C (stereo not drawn)            1.90
 8  CC(=O)N(C)C(C)C#CCn1c(C)cnc1C (stereo not drawn)            1.15
 9  CC1CCC(=O)N1CC#CCn1ccnc1 (stereo not drawn)            1.32
10  Br.Cc1cncn1CC#CC(C)N1CCCC1=O (stereo not drawn)            1.40
11               Cc1cn(CC#CCN2CCCC2=O)c(C)n1            1.73
12  CC(=O)N(C)C(C)C#CCn1ccnc1C (stereo not drawn)            1.07

====

test system: HCl-induced writhing in CF1 mice; assay: Analgesic activity, HCl writhing protection in mice; type: in vivo; settings: Mus musculus, sc, 0.25 h, read-out: CNS Id (ED50 mg/kg) HCl Writh. Protect
OBSERVATION_TYPE: ED50 (mg/kg)

> print(dat)
                                   compound  observation.type  prefix.operator  reported.value
1                     C(#CCn1ccnc1)CN1CCCC1              ED50                =             3.1
2                         CN(C)CC#CCn1ccnc1              ED50                >              50
3                      Cc1nccn1CC#CCN1CCCC1              ED50                =               5
4                       CCN(CC)CC#CCn1ccnc1              ED50                >              50
5               Cc1cn(CC#CCN2CCCC2=O)c(C)n1              ED50                >              50
6  O=C1CCCN1CC#CCN1CCCC1 [Oxotremorine, reference compound]              ED50                =           0.025

====

Ki values by entry
target: CNS cholinergic receptor; type: binding; conditions: tritiated quinuclidine benzylate; read-out: CNS Cholinergic Receptor Binding Assays Ki (nM) QNB
OBSERVATION_TYPE: Ki (nM)

> print(dat)
                                   compound             tested.target  reported.value
1  CC(C#CCn1ccnc1)N1CCCC1=O (stereo not drawn)  CNS cholinergic receptor             566
2  Br.Cc1cncn1CC#CC(C)N1CCCC1=O (stereo not drawn) [Compound 12, hydrobromide]  CNS cholinergic receptor            16.8
3                   CCc1nccn1CC#CCN1CCCC1=O  CNS cholinergic receptor            56.9
4  Cc1cncn1CC#CCN1C(=O)CCC1C (stereo not drawn)  CNS cholinergic receptor            11.6
5  CC(=O)N(C)C(C)C#CCn1cncc1C (stereo not drawn)  CNS cholinergic receptor             184
6  CC(=O)N(C)C(C)C#CCn1cnc(C)c1C (stereo not drawn)  CNS cholinergic receptor              79

====

# maps each entry to its Ki
target: CNS cholinergic receptor; test: Cholinergic receptor binding assay, tritiated oxotremorine M ligand; conditions: read-out: CNS Cholinergic Receptor Binding Assays Ki (nM) Oxotremorine
OBSERVATION_TYPE: Ki (nM)

> print(dat)
                                    compound  reading.unit  reported.value
 1        O=C1CCCN1CC#CCn1ccnc1 [Compound 1]            nM             1.3
 2        Cc1cncn1CC#CCN1CCCC1 [Compound 32]            nM             436
 3  CC(=O)N(C)C(C)C#CCn1cnc(C)c1C (stereo not drawn) [Compound 16]            nM              42
 4      O=C1CCCN1CC#CCn1ccnc1Cl [Compound 8]            nM             577
 5  CC(=O)N(C)C(C)C#CCn1c(C)cnc1C (stereo not drawn) [Compound 18]            nM             6.3
 6     CC(=O)N(C)CC#CCn1cncc1C [Compound 20]            nM             3.6
 7   O=C1CCC(=O)N1CC#CCn1ccnc1 [Compound 10]            nM            23.5
 8     Cc1cn(CC#CCN2CCCC2=O)cn1 [Compound 9]            nM            10.3
 9  CC(C#CCn1ccnc1)N1CCCC1=O (stereo not drawn) [Compound 6]            nM            33.5
10  CC(=O)N(C)C(C)C#CCn1ccnc1 (stereo not drawn) [Compound 14]            nM              12
11  CC1CCC(=O)N1CC#CCn1ccnc1 (stereo not drawn) [Compound 5]            nM              23
12         CC(=O)NCC#CCn1ccnc1 [Compound 22]            nM             187
13  Cc1cncn1CC#CCN1C(=O)CCC1=O [Compound 11]            nM            10.3
14  Cc1cncn1CC#CCN1C(=O)CCC1C (stereo not drawn) [Compound 13]            nM             1.7
15  Cc1cncn1CC#CCN(C)C(=O)N(C)C [Compound 25]            nM            82.1
16         CCN(CC)CC#CCn1ccnc1 [Compound 31]            nM           10000
17       Cc1nccn1CC#CCN1CCCC1=O [Compound 2]            nM             0.3
18  C(#CCN1CCCC1)CN1CCCC1 [Tremorine, reference compound]            nM             370
19           CN(C)CC#CCn1ccnc1 [Compound 29]            nM           10000
20  CN(C)C(=O)N(C)CC#CCn1ccnc1 [Compound 24]            nM              34
21  CC(=O)N(C)C(C)C#CCn1cc(C)nc1C (stereo not drawn) [Compound 17]            nM             130
22  Cc1cn(CC#CCN2CCCC2=O)c(C)n1 [Compound 4]            nM              68
23      CCc1nccn1CC#CCN1CCCC1=O [Compound 7]            nM            29.1
24  Br.Cc1cncn1CC#CC(C)N1CCCC1=O (stereo not drawn) [Compound 12, hydrobromide]            nM             5.2
25    COC(=O)N(C)CC#CCn1cncc1C [Compound 27]            nM             200
26  CC(=O)N(C)C(C)C#CCn1cncc1C (stereo not drawn) [Compound 21]            nM              10
27      CC(=O)N(C)CC#CCn1ccnc1 [Compound 19]            nM             1.9
28     COC(=O)N(C)CC#CCn1ccnc1 [Compound 26]            nM             120
29        CC(=O)NCC#CCn1cncc1C [Compound 23]            nM             213
30  CC(=O)N(C)C(C)C#CCn1ccnc1C (stereo not drawn) [Compound 15]            nM             1.6
